- test.protocol: NCI Yeast Anticancer Drug Screen. Data for the cln2 rad14 strain (AID 165);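 note: 0% = growth equal to vehicle treated cultures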
- condition.summary: S. cerevisiae cln2 rad14 strain, at 50.0 µM
About 79,000 compounds went through this panel and 15% of them were active in at least one assay; those are over-represented in the sample as a whole. The source made the active and inactive calls. Cut-off read from the data, not from the text of the source: active = growth inhibition above about 70%; inactive = the rest.
Output constraint: value belongs to 1 (yes) (active), 0 (no) (inactive)

Data request: Write down the call the test reported for this compound. Item: C/C(=N/NS(=O)(=O)c1ccc(C)cc1)C(=NO)/C(C)=N\NS(=O)(=O)c1ccc(C)cc1
Data returned: 1 (yes)

Data request: Write down the call the test reported for this compound. Item: CS(=O)(=O)c1nc(Cl)c2[nH]c(Cl)nc2n1
Data returned: 0 (no)

Data request: Write down the call the test reported for this compound. Item: N#Cc1ccc[n+](Cc2c(Cl)cccc2Cl)c1
Data returned: 0 (no)

Data request: Write down the call the test reported for this compound. Item: CN(C)C=NCCN1CCOCC1
Data returned: 0 (no)

Data request: Write down the call the test reported for this compound. Item: CNS(=O)(=O)c1ccc(C)cc1
Data returned: 0 (no)

Data request: Write down the call the test reported for this compound. Item: O=C(O)C1C2C=CC(O2)C1C(=O)Nc1ncccn1 (stereo not given)
Data returned: 0 (no)

Data request: Write down the call the test reported for this compound. Item: COc1ccc2c(c1)C1(C)CCCC(C)(CN=C=O)C1CC2 (stereo not given)
Data returned: 0 (no)

Data request: Write down the call the test reported for this compound. Item: CC(=O)OC1CC23CCC(=O)C2(CC3)C1 (stereo not given)
Data returned: 0 (no)

Data request: Write down the call the test reported for this compound. Item: Cc1cccc(C)c1C
Data returned: 0 (no)

Data request: Write down the call the test reported for this compound. Item: CC1=CC(=O)N2C(OC[C@@H]2c2ccccc2)O1 (stereo not given in full)
Data returned: 0 (no)

Data request: Write down the call the test reported for this compound. Item: Clc1ccccc1/C=C(/c1ccccc1)c1ccccn1
Data returned: 0 (no)

Data request: Write down the call the test reported for this compound. Item: O=C(N/N=C/c1ccc(Cl)cc1Cl)c1cccc([N+](=O)[O-])c1
Data returned: 0 (no)

Data request: Write down the call the test reported for this compound. Item: COc1ccc2[nH]c3c4c(c5cc(C(C)(C)C)ccc5c3c2c1)C(=O)N(c1ccccc1)C4=O
Data returned: 0 (no)

Data request: Write down the call the test reported for this compound. Item: CC(C)CCOc1ccc(C(N)=S)c2ccccc12
Data returned: 0 (no)

Data request: Write down the call the test reported for this compound. Item: COC(=O)C(=O)C(C(=O)C(N)=O)c1nc2ccc(C(=O)c3ccccc3)cc2[nH]c1=O (stereo not given)
Data returned: 0 (no)

Data request: Write down the call the test reported for this compound. Item: C=CC(=O)OCc1ccc(OC)cc1
Data returned: 0 (no)

Data request: Write down the call the test reported for this compound. Item: CC(=O)c1c(O)ccc2c(C)cc(=O)oc12
Data returned: 0 (no)

Data request: Write down the call the test reported for this compound. Item: COc1ccc2cc3n(c2c1)CCc1cc(OC)c(OC)cc1-3
Data returned: 0 (no)

Data request: Write down the call the test reported for this compound. Item: O=C(O)CSC(=S)c1ccccc1
Data returned: 0 (no)

Data request: Write down the call the test reported for this compound. Item: O=C1NC(=O)C(CCBr)N1 (stereo not given)
Data returned: 0 (no)

====

- test.protocol: NCI Yeast Anticancer Drug Screen. Data for the sgs1 mgt1 strain (AID 161);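 note: 0% = growth of cultures given vehicle only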
- condition.summary: S. cerevisiae sgs1 mgt1 strain, at 50.0 µM, active compounds read high
The panel holds about 79,000 compounds, 15% with a hit somewhere; the sample as a whole holds those more often. Calls of active or inactive are those of the source. Rule as the data show it: active = growth inhibition above about 70%; inactive = the rest.
So I've got a bunch of compounds here, and I need their growth inhibition values.

Data request: Let me know recorded growth inhibition for Cc1ccc([N+](=O)[O-])c2c(NCCNC(=O)Cn3ccnc3[N+](=O)[O-])ccnc12 , thanks.
Data returned: 8.25% (inactive)

Data request: Let me know recorded growth inhibition for Cc1cccc(C(=O)NCCN(C)C)c1[N+](=O)[O-] , thanks.
Data returned: 1.2% (inactive)

Data request: Let me know recorded growth inhibition for O=C(c1ccccc1)n1c2ccccc2c2ccccc21 , thanks.
Data returned: 17.6% (inactive)

Data request: Let me know recorded growth inhibition for O=C(O)CCC(=O)C(Cc1ccccc1)NC(=O)c1ccccc1 (stereo not drawn) , thanks.
Data returned: -10.1% (inactive)

Data request: Let me know recorded growth inhibition for Cc1cc(Br)cc2c1NC(=O)C(C)C2C (stereo not drawn) , thanks.
Data returned: -24.6% (inactive)

Data request: Let me know recorded growth inhibition for COc1cc(C(=O)C/C(CCC(=O)Nc2ccccc2[N+](=O)[O-])=N\NC(=O)C(N)=O)ccc1O , thanks.
Data returned: -47.4% (inactive)

Data request: Let me know recorded growth inhibition for N#CCC(=O)N/N=C(\C#N)c1ccccc1 , thanks.
Data returned: 0.55% (inactive)

Data request: Let me know recorded growth inhibition for Nc1ccc(OCC(O)CN2CCN(c3ccccc3)CC2)cc1 (stereo not drawn) , thanks.
Data returned: 6.65% (inactive)

Data request: Let me know recorded growth inhibition for Cc1cc(S(=O)(=O)Nc2n[nH]c(Nc3ccccc3)n2)c(SCC(=O)O)cc1Cl , thanks.
Data returned: 51.2% (inactive)

Data request: Let me know recorded growth inhibition for Cc1ccc(-n2nc(C)cc2C)nn1 , thanks.
Data returned: -9.75% (inactive)

Data request: Let me know recorded growth inhibition for Cc1ccc(N=Nc2c(C)nc(N)nc2C)cc1 , thanks.
Data returned: -12.7% (inactive)

Data request: Let me know recorded growth inhibition for O=C(N1CCOCC1)C12OC3CC(CC(C3)O1)O2 , thanks.
Data returned: 3.45% (inactive)

Data request: Let me know recorded growth inhibition for CCN1c2ccccc2CC(CCN(C(C)C)C(C)C)(C(N)=O)c2ccccc21 (stereo not drawn) , thanks.
Data returned: 24.8% (inactive)

Data request: Let me know recorded growth inhibition for CC1CN(C(c2ccccc2)c2ccccc2)CCN1CCO (stereo not drawn) , thanks.
Data returned: 12.3% (inactive)

Data request: Let me know recorded growth inhibition for CCCC1(c2ccccc2)SCC(=O)NC1=O (stereo not drawn) , thanks.
Data returned: -16.6% (inactive)

Data request: Let me know recorded growth inhibition for CC1=NN(c2ccccc2)C(=O)/C1=C1\SC(c2ccccc2)(c2ccccc2)c2ccccc21 , thanks.
Data returned: 1.8% (inactive)

Data request: Let me know recorded growth inhibition for Oc1cccc2ccc[n+](CCc3ccccc3)c12 , thanks.
Data returned: 8.7% (inactive)

Data request: Let me know recorded growth inhibition for Oc1ccccc1CNc1ncc(Cl)cc1Cl , thanks.
Data returned: 26.8% (inactive)

Data request: Let me know recorded growth inhibition for CCC/C=C(/CC)C(=O)OC(=O)/C(=C/CCC)CC , thanks.
Data returned: 13.8% (inactive)

Data request: Let me know recorded growth inhibition for COCCC(=O)SCc1ccccc1 , thanks.
Data returned: -9.2% (inactive)

Data request: Let me know recorded growth inhibition for C=CC1ON(C)CCc2cc(OC)c(OC)cc21 (stereo not drawn) , thanks.
Data returned: -53.5% (inactive)

Data request: Let me know recorded growth inhibition for Nc1cccc(C(F)(F)F)c1 , thanks.
Data returned: -16.3% (inactive)

Data request: Let me know recorded growth inhibition for CN1CCCC1c1cccnc1.O=C(O)c1ccccc1O.O=C([O-])c1ccccc1[OH2+].O=C([O-])c1ccccc1[OH2+].O=C([O-])c1ccccc1[OH2+].[Mn+2] (stereo not drawn) , thanks.
Data returned: -10.3% (inactive)

Data request: Let me know recorded growth inhibition for S=C([S-])[P+](C1CCCCC1)(C1CCCCC1)C1CCCCC1 , thanks.
Data returned: -28.2% (inactive)

Data request: Let me know recorded growth inhibition for CCCCOc1c(Cl)cc(Cl)cc1-c1ccccc1 , thanks.
Data returned: 2.55% (inactive)

Data request: Let me know recorded growth inhibition for CCCCC1NNC(CCCC)NN1 (stereo not drawn) , thanks.
Data returned: -18.8% (inactive)

Data request: Let me know recorded growth inhibition for O=C(O)c1ccccc1Nc1ccccc1[N+](=O)[O-] , thanks.
Data returned: 17.2% (inactive)

Data request: Let me know recorded growth inhibition for Cc1nn(C(=O)c2ccncc2)c2c1C(c1ccccc1)SC(N)=N2 (stereo not drawn) , thanks.
Data returned: 18.9% (inactive)

Data request: Let me know recorded growth inhibition for O=C(C[n+]1ccncc1)c1ccc2c(c1)CCCC2 , thanks.
Data returned: 14.7% (inactive)

Data request: Let me know recorded growth inhibition for N#C/C(=C\N1CCNC1=S)C(=O)c1ccc2ccccc2c1 , thanks.
Data returned: -1.7% (inactive)

Data request: Let me know recorded growth inhibition for Cn1ncc2c(NCCc3ccccc3)nc(Cl)nc21 , thanks.
Data returned: 5.15% (inactive)

Data request: Let me know recorded growth inhibition for CCCCCNC(=O)c1cccc(C)c1 , thanks.
Data returned: -7.65% (inactive)

Data request: Let me know recorded growth inhibition for CC(=O)N1c2cc(N=NN(C)C)ccc2NC(=O)CC1C (stereo not drawn) , thanks.
Data returned: 9.5% (inactive)

Data request: Let me know recorded growth inhibition for C=CC(C)(C)c1c(OC(C)=O)cc2oc3c(OC(C)=O)c(OC(C)=O)cc(CC=C(C)C)c3c(=O)c2c1O , thanks.
Data returned: 11.2% (inactive)

Data request: Let me know recorded growth inhibition for O=C1NC(N2CCCCC2)=N/C1=C\c1cccs1 , thanks.
Data returned: -12.9% (inactive)

Data request: Let me know recorded growth inhibition for COc1ccc(C2C(Cl)C(=O)N2NC(=O)c2ccccc2O)cc1 (stereo not drawn) , thanks.
Data returned: -38.1% (inactive)

Data request: Let me know recorded growth inhibition for C=CCCCCCCCCCO , thanks.
Data returned: -1.9% (inactive)

Data request: Let me know recorded growth inhibition for CC(=O)c1cccc(NC(=O)N2CCN(c3ccccc3)CC2)c1 , thanks.
Data returned: 20% (inactive)

Data request: Let me know recorded growth inhibition for Nc1ncnc2c1c1cncnc1n2C1OC(CO)C(O)C1O (stereo not drawn) , thanks.
Data returned: -9.55% (inactive)

Data request: Let me know recorded growth inhibition for Cc1cnc2[nH]c(-c3ccc(Cl)cc3)cc(=O)c2c1 , thanks.
Data returned: -31.9% (inactive)

Data request: Let me know recorded growth inhibition for CN=C(N)SCCCSC(N)=NC , thanks.
Data returned: 28% (inactive)

Data request: Let me know recorded growth inhibition for CC1(C)CC(O)(Cc2ccccc2)C(O)c2ccccc21 (stereo not drawn) , thanks.
Data returned: 31.6% (inactive)

Data request: Let me know recorded growth inhibition for COC(=O)c1cc(CN(C)C)c(O)c(CN(C)C)c1 , thanks.
Data returned: -34% (inactive)
